Tested on: HEK-293T
Experiment: Multiplex assay against HEK293T
Format: toxicity, cell-based
Details: human, 48 h, 1 µM, compound concentration 1 uM, replicate 2
Consider the following compounds and their measured Population Mitotic Cells (%) readings.
Give the value, in units of %, as a plain number.

1) COc1cc(N2CCN(C)CC2)ccc1Nc1ncc2c(n1)N(C)c1ccccc1C(=O)N2C
81
2) CN1C2CCC1CC(OC(c1ccc(F)cc1)c1ccc(F)cc1)C2.Cl (stereo unspecified)
89
3) Cl.Oc1ccc2c3c1O[C@H]1c4[nH]c5c(c4C[C@@]4(O)[C@@H](C2)N(CC2CC2)CC[C@]314)C[C@@]1(O)[C@H]2Cc3ccc(O)c4c3[C@@]1(CCN2CC1CC1)[C@H]5O4
89
4) O=C1NC(=O)C(c2cnc3ccccn23)=C1c1cn2c3c(cc(F)cc13)CN(C(=O)N1CCCCC1)CC2
70
5) Cc1ccc(C(=O)Nc2cccc(C(F)(F)F)c2)cc1Nc1nc(-c2cccnc2)nc2c1cnn2C
52

In the following, a different compound is considered.
Query :: Entry `O=C(Cc1ccc(-c2ccc(OCCN3CCOCC3)cc2)cn1)NCc1ccccc1` has what Population Mitotic Cells (%)?
Result :: 60

====

System: Fibroblast
Assay: Multiplex assay against human fibroblast
Format: toxicity, cell-based
Details: 48 h, 1 µM, compound concentration 1 uM, replicate 2
Consider the following compounds and their measured Population Mitochondria Different-Phenotype (%) readings.
Give the value, in units of %, as a plain number.

Worked set:
1. CCc1cccc(CC)c1NC(=O)c1nn(C)c2c1CCc1cnc(Nc3ccc(C(=O)NC4CCN(C)CC4)cc3OC(F)(F)F)nc1-2
4
2. C=C1/C(=C\C=C2/CCC[C@]3(C)[C@@H]([C@H](C)/C=C/[C@H](C)C(C)C)CC[C@@H]23)C[C@@H](O)C[C@@H]1O
2

Query :: Entry `CNc1cc(Oc2cc(C(=O)Nc3cc(N4CCN(C)CC4)cc(C(F)(F)F)c3)ccc2C)ncn1` has what Population Mitochondria Different-Phenotype (%)?
Result :: 3

Query :: Also check `CCOc1cc2ncc(C#N)c(Nc3ccc(OCc4ccccn4)c(Cl)c3)c2cc1NC(=O)/C=C/CN(C)C`
Result :: 4

Query :: Also check CN1C2CCC1CC(OC(c1ccc(F)cc1)c1ccc(F)cc1)C2.Cl (stereo not given)
Result :: 6

====

System: HEK-293T
Experiment: Multiplex assay against HEK293T;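 as to Population Tubulin-Different-Phenotype (%): share of the cells with healthy nuclei that show this phenotype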
Type: toxicity, cell-based
Conditions: human, 12 h, 10 µM, compound concentration 10 uM, replicate 2
Decide using Population Tubulin-Different-Phenotype (%) alone. Strictly below 60%: 1. Equal to or above 60%: 0.

A selection of reference data follows.
1. C=CCn1c(=O)c2cnc(Nc3ccc(N4CCN(C)CC4)cc3)nc2n1-c1cccc(C(C)(C)O)n1 [ADAVOSERTIB]
0
2. CN1CCC(=C2c3ccccc3CC(=O)c3sccc32)CC1.O=C(O)/C=C/C(=O)O [KETOTIFEN FUMARATE]
0
3. CCCS(=O)(=O)Nc1ccc(F)c(C(=O)c2c[nH]c3ncc(Cl)cc23)c1F [PLX-4720]
1
4. O=C(Nc1ccc(-c2ccnc(Nc3ccc(N4CCOCC4)cc3)n2)cc1)[C@@H]1CCCN1
0

Query :: Criterion: Population Tubulin-Different-Phenotype (%) strictly below 60%. Is it met by CN1CCN(C(=O)C(C)(C)c2ccc(C(=O)Nc3cn4cc(-c5cc(C(C)(C)C)cc(C(C)(C)C)c5)ccc4n3)cc2)CC1 [T3-CLK-N] ?
Result :: 0
